Recorded TGI by entry
System: MOLT-4 leukemia
Assay: NCI tumour cell line growth inhibition, 48 h

Field: example entries. Status: answers known.
CCN(CC)CCOc1ccc(/C(=C(\C)Cc2ccc(OC)cc2)c2ccc(OC(=O)NCc3ccccc3)cc2)cc1 | 5.73 µM
COc1ccc(NC(=O)C(=O)C2CNC(=O)NC2=O)c(OC)c1 (stereo not given) | > 100 µM
COC1C=CC(C(=O)[N+]2=Cc3[nH]c4ccccc4c3CC2)O1 (stereo not given) | > 100 µM
CN1C2CCC1C(C(O)c1ccccc1[N+](=O)[O-])C(=O)C2 (stereo not given) | > 100 µM
COc1ccc(-c2c(C#N)c(-c3ccc(C)cc3)n(NS(=O)(=O)c3ccccc3)c(=O)c2C#N)cc1 | 60.4 µM

Endpoint output: TGI of N.N.N.N.N.N.[I-].[Os] . Value?
> 100 µM

Looking for the measured TGI of COc1ccc(CNC2=C(NC(C)=O)C(=O)c3ccccc3C2=O)cc1 , can you help?
17.7 µM

###

Test system: CAKI-1 renal
Experiment: NCI tumour cell line growth inhibition, 48 h
Overview of recorded TGI for various molecules

Here are 4 molecules together with their reported answers.
NC(CNO)C(=O)O (stereo not given) | > 100 µM
CC1(C)CC[C@]2(C(=O)O)CC[C@]3(C)C(=CC[C@@H]4[C@@]5(C)C[C@H](O)[C@H](O)[C@@](C)(CO)C5=CC[C@]43C)[C@@H]2C1 | > 100 µM
CCOC(=O)c1nc2ccccc2nc1NCc1ccc(OC)cc1 | > 100 µM
COc1ccc2c(c1)CCc1c(-c3noc4c3CCc3cc(OC)ccc3-4)noc1-2 | > 100 µM

Given the entry COC(=O)/C(C#N)=C1\CCC(O)N1C (stereo not given) , report its measured TGI.
> 100 µM

Give the measured TGI of COC(=O)C(=O)C(C(=O)C(=O)Nc1ccc(Cl)cc1C)c1nc2ccc(C(=O)c3ccccc3)cc2[nH]c1=O (stereo not given) .
> 100 µM

Look up TGI: O=c1[nH]c(-c2cccc(F)c2)nc2ccccc12
> 100 µM

###

Reported TGI is given for each of the following compounds.
Tested on: RXF 393 renal
Assay: NCI tumour cell line growth inhibition, 48 h

Study these solved cases before continuing.
OCC1OC(Oc2cc(O)cc(/C=C\c3ccc(O)cc3)c2)C(O)C(O)C1O (stereo unspecified) | > 100 µM
COc1ccc(-c2c(C#N)c(-c3ccc(C)cc3)n(NS(=O)(=O)c3ccccc3)c(=O)c2C#N)cc1 | > 100 µM
COc1ccc2c(c1)CCc1c(-c3noc4c3CCc3cc(OC)ccc3-4)noc1-2 | > 100 µM

What TGI value was documented for this compound, COc1cc2nc(Sc3c([N+](=O)[O-])ncn3C)[nH]c2cc1OC ?
43.9 µM

Field request: TGI | item: O=C(O)c1ccc2c(c1Nc1ccccc1)C(=O)c1ccccc1C2=O
> 100 µM

Query (compound): COC(=O)C1Cc2cccc(C)c2C1 (stereo unspecified) ; field requested: TGI
> 100 µM

Entry CC1(C)C=C(/C=N/Nc2ccc([N+](=O)[O-])cc2)C(C#N)=C(O)C1(C#N)C#N : reported TGI = ?
> 100 µM

Value lookup for TGI; key = COc1ccc(-c2cc(=O)c3c(OC)c(OC)c(OC)c(OC)c3o2)cc1OC
> 100 µM

Requested read-out: TGI. Entry: Cn1c(=O)c2c(no[n+]2[O-])n(C)c1=O
94.2 µM

Requested read-out: TGI. Entry: O=C1c2cccnc2S(=O)N1Cc1ccccc1 (stereo unspecified)
> 100 µM

So what does the record say about TGI for COc1cccc2c(NNc3ccccc3)c3ccc([N+](=O)[O-])cc3nc12 ?
> 100 µM
